Where these numbers come from: patent US6114537A

- Experimental system: Cathepsin B (Rattus norvegicus, UniProt P00787)
- Sequence (P00787 80-339): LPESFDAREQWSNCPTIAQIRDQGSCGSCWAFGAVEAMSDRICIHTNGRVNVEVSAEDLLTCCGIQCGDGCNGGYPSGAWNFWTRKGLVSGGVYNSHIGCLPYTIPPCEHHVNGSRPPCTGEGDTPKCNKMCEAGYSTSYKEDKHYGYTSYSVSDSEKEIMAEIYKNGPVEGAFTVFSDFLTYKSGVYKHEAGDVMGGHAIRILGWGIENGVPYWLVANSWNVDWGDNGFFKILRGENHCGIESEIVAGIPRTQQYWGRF
- Test method notes: Inhibition of Cathepsin B, enzyme assay and kinetic measurements
- Type: biochemical
- Run parameters: approximates kon; read-out: kabs /[inh] (cathepsin B)
- Source text: Inhibition of Cathepsin B, Cathepsin L and Papain by 1,2,4-thiadiazoles and 1,2,4-thiadiazole[4,5-a]benzimidazole derivatives: Enzyme Assays and Kinetic Measurements […] In this equation, [P] represents the concentration of product (obtained from the flourescene readings), kabs is the first order rate constant to reach steady state, vo is the initial rate which corresponds to the rate in the absence of the inhibitor, and vi is the rate of the inhibited enzyme at steady state. […]
Outcome measure: kinact/KI

Query: kinact/KI; subject: CN1CCN(c2nsc3nc4ccccc4n23)CC1
19 M⁻¹ s⁻¹

What do you get for c1ccc2c(c1)nc1snc(OCCN3CCOCC3)n12 ?
107 M⁻¹ s⁻¹

What do you get for COC(=O)[C@@H]1CCCN1c1nsc2nc3ccccc3n12 ?
626 M⁻¹ s⁻¹

What do you get for O=C(O)c1nsc2nc3ccccc3n12 ?
34 M⁻¹ s⁻¹

What do you get for O=C(c1ccccn1)c1nsc2nc3ccccc3n12 ?
15 M⁻¹ s⁻¹

What do you get for COc1nsc(NC(=O)N[C@@H](CC(C)C)C(=O)NCCC(C)C)n1 [Example T11AA] ?
1060 M⁻¹ s⁻¹

What do you get for c1ccc2c(c1)nc1snc(CN3CCOCC3)n12 ?
8 M⁻¹ s⁻¹

----------
- Experimental system: Cathepsin L (Homo sapiens)
- Sequence (P07711 114-333): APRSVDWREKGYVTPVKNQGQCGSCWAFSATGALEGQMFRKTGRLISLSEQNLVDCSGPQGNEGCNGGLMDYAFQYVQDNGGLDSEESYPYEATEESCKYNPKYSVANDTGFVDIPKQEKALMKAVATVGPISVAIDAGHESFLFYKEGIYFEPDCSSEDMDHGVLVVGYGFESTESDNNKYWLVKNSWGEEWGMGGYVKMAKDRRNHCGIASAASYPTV
- Test method notes: Inhibition of Cathepsin L, enzyme assay and kinetic measurements
- Type: biochemical
- Run parameters: approximates kon; read-out: kabs /[inh] (cathepsin L)
- Excerpt: Inhibition of Cathepsin B, Cathepsin L and Papain by 1,2,4-thiadiazoles and 1,2,4-thiadiazole[4,5-a]benzimidazole derivatives: Enzyme Assays and Kinetic Measurements […] In this equation, [P] represents the concentration of product (obtained from the flourescene readings), kabs is the first order rate constant to reach steady state, vo is the initial rate which corresponds to the rate in the absence of the inhibitor, and vi is the rate of the inhibited enzyme at steady state. […]
Outcome measure: kinact/KI (M⁻¹ s⁻¹)
The response must be a number in M⁻¹ s⁻¹ with no trailing unit.

Look up kinact/KI with Cathepsin L (Homo sapiens) for this molecule: CC(C)CCNC(=O)[C@H](CC(C)C)NC(=O)c1nsc2nc3ccccc3n12
307

What do you get for c1ccc2c(c1)nc1snc(OCCN3CCOCC3)n12 ?
356

What do you get for O=C(O)c1nsc2nc3ccccc3n12 ?
184

What do you get for O=C(c1ccccn1)c1nsc2nc3ccccc3n12 ?
68

What do you get for COC(=O)[C@@H]1CCCN1c1nsc2nc3ccccc3n12 ?
1050

What do you get for COc1nsc(NC(=O)N[C@@H](CC(C)C)C(=O)NCCC(C)C)n1 [Example T11AA] ?
3480

What do you get for CN1CCN(c2nsc3nc4ccccc4n23)CC1 ?
24

What do you get for c1ccc2c(c1)nc1snc(CN3CCOCC3)n12 ?
7

----------
- Experimental system: Papain (Carica papaya, UniProt P00784)
- Sequence (P00784 134-345): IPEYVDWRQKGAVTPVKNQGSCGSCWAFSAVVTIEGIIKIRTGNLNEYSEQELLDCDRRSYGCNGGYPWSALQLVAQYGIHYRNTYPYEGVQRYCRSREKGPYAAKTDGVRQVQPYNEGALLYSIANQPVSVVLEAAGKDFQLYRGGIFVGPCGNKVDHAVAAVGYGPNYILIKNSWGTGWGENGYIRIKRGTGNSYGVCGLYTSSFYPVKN
- Test method notes: Inhibition of Papain, enzyme assay and kinetic measurements
- Type: biochemical
- Run parameters: approximates kon; read-out: kabs /[inh] (papain)
- Text: Inhibition of Cathepsin B, Cathepsin L and Papain by 1,2,4-thiadiazoles and 1,2,4-thiadiazole[4,5-a]benzimidazole derivatives: Enzyme Assays and Kinetic Measurements […] In this equation, [P] represents the concentration of product (obtained from the flourescene readings), kabs is the first order rate constant to reach steady state, vo is the initial rate which corresponds to the rate in the absence of the inhibitor, and vi is the rate of the inhibited enzyme at steady state. […]
Outcome measure: kinact/KI (M⁻¹ s⁻¹)
The response must be a number in M⁻¹ s⁻¹ with no trailing unit.

Look up kinact/KI with Papain (Carica papaya, UniProt P00784) for this compound: c1ccc2c(c1)nc1snc(OCCN3CCOCC3)n12
5560

What do you get for O=C(c1ccccn1)c1nsc2nc3ccccc3n12 ?
2480

What do you get for O=C(O)c1nsc2nc3ccccc3n12 ?
131

What do you get for COC(=O)[C@@H]1CCCN1c1nsc2nc3ccccc3n12 ?
356

What do you get for CC(C)CCNC(=O)[C@H](CC(C)C)NC(=O)c1nsc2nc3ccccc3n12 ?
500

What do you get for CN1CCN(c2nsc3nc4ccccc4n23)CC1 ?
28

What do you get for c1ccc2c(c1)nc1snc(CN3CCOCC3)n12 ?
7

What do you get for COc1nsc(NC(=O)N[C@@H](CC(C)C)C(=O)NCCC(C)C)n1 [Example T11AA] ?
3900
